# System: 3T3-L1 cell
# PROTOCOL DESCRIPTION: Inhibitory activity on triglycerides accumulation in adipocyte (Oil Red O staining)
# Assay type: cell-based, mouse
# PARTICULARS: Mus musculus, 192 h; 3T3-L1 cells, 8 days in differentiation media, Oil Red O; read-out: IC50-value on triglycerides accumulation in adipocyte
OBSERVATION TYPE: pIC50
A value of pIC50 is the negative decimal logarithm of a concentration given in moles per litre.

## Input Report the value of pIC50 obtained on 3T3-L1 cell for `O=c1c(-c2ccc(O)cc2)coc2cc(O)cc(O)c12` .
## Output 4.23

----------
# Test system: 3T3-L1 cells
# PROTOCOL DESCRIPTION: Inhibition test on adipocyte differentiation (counting of Oil Red O stained cells)
# Type: cell-based, mouse
# PARTICULARS: 3 days in differentiation medium, microscopical counting of Oil Red O stained cells
OBSERVATION TYPE: IC50 (µM)
Give the value, in units of µM, as a plain number.

## Input Given CC1=C(/C=C/C(C)=C/C=C/C(C)=C/C=C/C=C(C)/C=C/C=C(C)/C=C/C(=O)[C@]2(C)C[C@@H](O)CC2(C)C)C(C)(C)C[C@H](O)C1 [free-form capsanthin, capsanthin] , respond with its IC50.
## Output 4.49

This collection of values is drawn from patent US20120315345A1.
